- protocol-text: inhibitors of the yeast RAM network, pilot screen, dse1pr::URA3 reporter, 5-FOA selection (AID 869);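 further: 0% = DMSO wells with no growth and 100% = 10 µM 1-NA-PP1 with full growth; RAM network block rescues cells from 5-FOA so hits raise OD615 growth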
- condition-context: S. cerevisiae dse1pr::URA3 5-FOA growth, OD615, 2 d; at 10 µM; stronger effect = higher value; strain carries analog-sensitive mutant Cbk1 kinase
Let's look at some compounds and their measured inhibition.

[
  {
    "compound": "N#Cc1cccc(NC(=O)NCCc2c[nH]c3ccccc23)c1",
    "inhibition [%]": -0.125
  },
  {
    "compound": "Cc1ccccc1-n1nc(-c2ccc(N)cc2)cc1N",
    "inhibition [%]": 0.8
  },
  {
    "compound": "COc1ccc(C(=O)Nc2ccccc2-c2nnn(CC(=O)NCc3ccco3)n2)cc1",
    "inhibition [%]": 4.12
  },
  {
    "compound": "CCOC(=O)C1CCCN(C(=O)C2CCCN(S(=O)(=O)c3ccc4c(c3)oc(=O)n4C)C2)C1 (stereo not given)",
    "inhibition [%]": 0.445
  },
  {
    "compound": "COc1ccc(N(CC(=O)NCc2ccccc2OC)S(=O)(=O)c2c(C)nn(C)c2C)cc1",
    "inhibition [%]": 0.135
  },
  {
    "compound": "CCOc1ccc(-n2c(SCC(=O)Nc3ccc4c(c3)OCCO4)nc3c(c2=O)SCC3)cc1",
    "inhibition [%]": 3.17
  },
  {
    "compound": "CCCNc1nc2c(c(=O)[nH]c(=O)n2C)n1Cc1cccc(Br)c1",
    "inhibition [%]": 3.46
  },
  {
    "compound": "CCCNC(=O)NCCc1c(C)[nH]c2ccccc12",
    "inhibition [%]": 1.35
  },
  {
    "compound": "COc1cc(C(=O)NCc2ccc3c(c2)OCO3)ccc1OCc1c(C)noc1C",
    "inhibition [%]": 2.5
  },
  {
    "compound": "COc1cccc(C2CC(=O)N3CN(c4ccccc4F)CSC3=C2C#N)c1 (stereo not given)",
    "inhibition [%]": 2.96
  }
]

====

- protocol-text: reducers of endogenous Her2 protein level, primary screen, SKBR3 breast tumor cells, AlphaScreen, ATP viability (AID 461);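 on viability: percent of carrier control wells set as 100% viability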
- condition-context: 18-24 h, measured here: SKBR3 viability, ATP luminescence, at 10 µM

[
  {
    "molecule": "NC(N)=NS(=O)(=O)c1ccc(N)cc1",
    "viability [%]": 100
  },
  {
    "molecule": "CCOC(=O)c1cccc(NC(=O)CSc2nc3ccccc3c(=O)n2CC)c1",
    "viability [%]": 87
  },
  {
    "molecule": "CCOC(=O)N1CCN(C(=O)c2ccc3c(=O)n(CCc4ccccc4)c(=O)[nH]c3c2)CC1",
    "viability [%]": 98.5
  },
  {
    "molecule": "O=S(=O)(c1cccs1)N1CCN(C/C=C/c2ccccc2)CC1",
    "viability [%]": 101
  },
  {
    "molecule": "C[C@H](NC(=O)NCc1cccs1)C(=O)O",
    "viability [%]": 104
  },
  {
    "molecule": "Cn1cccc1Cc1nnc(SCC(=O)Nc2ccc(F)cc2)n1-c1ccc(F)cc1",
    "viability [%]": 86
  },
  {
    "molecule": "C[C@H](NC(=O)OC(C)(C)C)C(=O)NCC1CCC(C(=O)O)CC1 (stereo partly drawn)",
    "viability [%]": 101
  },
  {
    "molecule": "CC(C)Cn1c(=O)c(C2=NS(=O)(=O)c3ccccc3N2)c(O)c2ccccc21",
    "viability [%]": 118
  },
  {
    "molecule": "Cc1ncc([N+](=O)[O-])n1CC(O)CCl (stereo not drawn)",
    "viability [%]": 99.5
  },
  {
    "molecule": "O=S(=O)(NCc1ccco1)c1cccc2cccnc12",
    "viability [%]": 105
  },
  {
    "molecule": "CC(=O)O[C@]1(C(C)=O)CC[C@H]2[C@@H]3C=C(C)C4=CC(=O)CC[C@]4(C)[C@H]3CC[C@@]21C",
    "viability [%]": 97
  },
  {
    "molecule": "C=CCn1c(=O)c2ccccc2n2c(SCC(=O)Nc3cc(C)on3)nnc12",
    "viability [%]": 92.5
  },
  {
    "molecule": "COC(=O)C1=C(C)NC(=O)C1(NC(=O)CN1CCCC1=O)C(F)(F)F (stereo not drawn)",
    "viability [%]": 116
  },
  {
    "molecule": "O=S(=O)(Nc1ccn(-c2ccccc2)n1)c1ccc(Br)cc1",
    "viability [%]": 89
  },
  {
    "molecule": "Cc1ccc(-c2nn(-c3ccccc3)cc2CN(Cc2ccccc2)C(=O)CCC(=O)O)o1",
    "viability [%]": 100
  },
  {
    "molecule": "CC(=O)Nc1sc2c(c1CN1CCN(c3ccccn3)CC1)CCCC2",
    "viability [%]": 66
  },
  {
    "molecule": "CC(C(=O)Nc1ccccc1-c1ccccc1)N1CCOCC1 (stereo not drawn)",
    "viability [%]": 108
  },
  {
    "molecule": "N#CCCNCC1(c2ccccc2)CCCC1",
    "viability [%]": 96
  },
  {
    "molecule": "CS(=O)(=O)N1CCCC(C(=O)NCc2ccccc2Cl)C1 (stereo not drawn)",
    "viability [%]": 99
  },
  {
    "molecule": "COC(=O)c1ccccc1NC(=O)Cn1ccnc1",
    "viability [%]": 110
  },
  {
    "molecule": "CCCCCCC1/C(=N/O)CCC1C(=O)OC (stereo not drawn)",
    "viability [%]": 108
  },
  {
    "molecule": "CS(=O)(=O)N1CCN(c2ccccc2NC(=O)c2ccc(-c3ccc(Cl)cc3Cl)o2)CC1",
    "viability [%]": 78.5
  },
  {
    "molecule": "O=C(O)CCCCCCC1C(=O)NC(=O)N1CCC(O)C1CCCCC1 (stereo not drawn)",
    "viability [%]": 108
  }
]

====

- protocol-text: viability gain of MRP-1-high H69AR cells under doxorubicin, pilot screen, MRP-1 activator project, CellTiter-Glo, duplicate (AID 807);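 further: compound pretreatment 18-22 h then 72 h combined with doxorubicin; 0% = doxorubicin alone and 100% = vehicle without doxorubicin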
- condition-context: H69AR viability with doxorubicin, CellTiter-Glo luminescence; at 10 µM; stronger effect = higher value
Let's look at some compounds and their measured viability increase.
measurement-kind: viability increase (%)

[
  {
    "compound": "COCCn1c(=O)[nH]c2cc(C(=O)NCCN3CCN(c4ccccc4F)CC3)ccc2c1=O",
    "assay-value": -1.27
  },
  {
    "compound": "CCCS(=O)(=O)NCc1cn2c(C)csc2n1",
    "assay-value": -2.28
  },
  {
    "compound": "CC(C)CN(CC(C)C)c1nnc(N)s1",
    "assay-value": 1.25
  },
  {
    "compound": "CC(C)Cn1c(SCC#N)nc2ccccc2c1=O",
    "assay-value": -1.74
  },
  {
    "compound": "CC(=O)c1cccc(NC(=O)N2CCCC2C(=O)Nc2c(C)cccc2C)c1 (stereo unspecified)",
    "assay-value": -2.28
  },
  {
    "compound": "O=C(NCCCc1ccccc1)c1ccncc1",
    "assay-value": -0.23
  },
  {
    "compound": "Cc1cc2cc(CNC(=O)c3ccc(Br)o3)ccc2n1C",
    "assay-value": -2.79
  },
  {
    "compound": "CCOC(=O)c1c(C)n(C)c2ccc(OCC(O)CN3CCCCCC3)cc12 (stereo unspecified)",
    "assay-value": -5.4
  },
  {
    "compound": "Cc1cc(C)nc(SCCn2c(N3CCC(C)CC3)nc3c2c(=O)n(C)c(=O)n3C)n1",
    "assay-value": 1.09
  },
  {
    "compound": "CC(=O)/C(C(=N)N1CCN(C(c2ccccc2)c2ccccc2)CC1)=C(\\C)O",
    "assay-value": -2.93
  },
  {
    "compound": "Cc1cccc(N2CCN(C(=O)C3CCN(c4nnc(-n5cccc5)s4)CC3)CC2C)c1 (stereo unspecified)",
    "assay-value": -1.6
  }
]

====

- target-or-test-system: Receptor tyrosine-protein kinase erbB-2 (Homo sapiens) (UniProt P04626)
- Sequence (P04626 whole entry, looked up): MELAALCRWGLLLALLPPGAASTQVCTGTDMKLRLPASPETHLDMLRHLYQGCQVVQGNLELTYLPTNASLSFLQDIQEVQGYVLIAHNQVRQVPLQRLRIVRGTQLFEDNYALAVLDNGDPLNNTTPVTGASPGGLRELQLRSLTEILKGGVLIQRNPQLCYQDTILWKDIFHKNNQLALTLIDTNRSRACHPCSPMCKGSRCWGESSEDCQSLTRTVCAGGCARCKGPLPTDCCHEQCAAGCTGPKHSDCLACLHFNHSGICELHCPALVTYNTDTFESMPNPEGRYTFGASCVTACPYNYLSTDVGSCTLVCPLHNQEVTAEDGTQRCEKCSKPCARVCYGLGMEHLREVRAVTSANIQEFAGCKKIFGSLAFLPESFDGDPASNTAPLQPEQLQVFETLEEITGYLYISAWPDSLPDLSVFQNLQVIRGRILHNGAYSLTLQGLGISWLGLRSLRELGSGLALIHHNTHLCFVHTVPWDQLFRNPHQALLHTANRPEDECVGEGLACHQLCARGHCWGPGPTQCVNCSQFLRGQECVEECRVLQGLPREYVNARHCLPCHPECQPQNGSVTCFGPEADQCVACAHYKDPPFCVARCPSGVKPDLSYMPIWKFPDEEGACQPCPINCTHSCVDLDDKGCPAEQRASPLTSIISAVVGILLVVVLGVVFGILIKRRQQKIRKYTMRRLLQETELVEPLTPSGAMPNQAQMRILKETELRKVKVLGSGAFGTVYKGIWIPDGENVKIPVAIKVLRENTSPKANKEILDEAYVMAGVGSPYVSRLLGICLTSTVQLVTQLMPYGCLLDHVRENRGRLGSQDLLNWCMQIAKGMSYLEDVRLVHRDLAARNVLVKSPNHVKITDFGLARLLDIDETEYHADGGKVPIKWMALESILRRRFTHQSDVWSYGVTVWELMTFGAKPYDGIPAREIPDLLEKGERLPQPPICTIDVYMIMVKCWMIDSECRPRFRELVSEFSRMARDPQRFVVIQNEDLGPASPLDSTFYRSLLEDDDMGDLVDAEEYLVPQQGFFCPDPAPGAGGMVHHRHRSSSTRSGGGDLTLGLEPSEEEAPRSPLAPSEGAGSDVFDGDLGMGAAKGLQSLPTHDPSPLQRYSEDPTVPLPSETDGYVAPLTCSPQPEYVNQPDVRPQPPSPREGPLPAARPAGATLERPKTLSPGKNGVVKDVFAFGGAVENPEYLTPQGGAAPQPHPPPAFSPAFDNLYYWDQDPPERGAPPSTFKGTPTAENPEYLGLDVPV
- protocol-text: reducers of endogenous Her2 protein level, primary screen, SKBR3 breast tumor cells, AlphaScreen, ATP viability (AID 461);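 on Her2 level: lower value means less Her2 protein in the cells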;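 on viability: percent of carrier control wells set as 100% viability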
- condition-context: 18-24 h, at 10 µM, stronger effect = lower value
measurement-kind: Her2 level (%)

[
  {
    "compound": "COC(=O)CC1SCCNC1=O (stereo not given)",
    "assay-value": 94
  },
  {
    "compound": "O=c1c2cc(N3CCOCC3)ccc2[nH]c(=S)n1CCCN1CCCC1",
    "assay-value": 78
  },
  {
    "compound": "Cc1onc(-c2ccccc2)c1C(=O)Nc1ccc(S(=O)(=O)N2CCCCC2)cc1",
    "assay-value": 94.5
  },
  {
    "compound": "Cc1cccc(N2CN=c3s/c(=C\\c4ccncc4)c(=O)n3C2)c1",
    "assay-value": 68
  },
  {
    "compound": "CSCCC(NC(=O)c1ccco1)C(=O)O (stereo not given)",
    "assay-value": 110
  },
  {
    "compound": "Oc1ccc2[nH]cnc2c1CN1CCCCC1",
    "assay-value": 110
  },
  {
    "compound": "CCOC(=O)C1=C(C)Nc2nnnn2C1c1c[nH]c2ccccc12 (stereo not given)",
    "assay-value": 94
  },
  {
    "compound": "Nc1cc(-c2ccccc2)ccc1O",
    "assay-value": 70.5
  },
  {
    "compound": "Cc1cc(C)cc(NC(=O)C2CCCN(S(=O)(=O)c3cnc[nH]3)C2)c1 (stereo not given)",
    "assay-value": 96
  },
  {
    "compound": "Cc1ccc(C)c(-c2nc3cc(N)ccc3o2)c1",
    "assay-value": 106
  },
  {
    "compound": "Cn1c(=O)c2c(nc(SCCCO)n2Cc2ccccc2Cl)n(C)c1=O",
    "assay-value": 78.5
  },
  {
    "compound": "Cn1c(Cl)nc2ccccc21",
    "assay-value": 96
  },
  {
    "compound": "c1cncc(-c2nnc(SCCSc3nnc(-c4cccnc4)o3)o2)c1",
    "assay-value": 93
  },
  {
    "compound": "Cc1ccc2ncnc(NCCCN3CCOCC3)c2c1",
    "assay-value": 120
  },
  {
    "compound": "O=C(NCc1ccco1)c1cnc2n(c1=O)CCS2",
    "assay-value": 94.5
  },
  {
    "compound": "CCOC(=O)N1CCN(CC(=O)c2c(C)[nH]c3ccccc23)CC1",
    "assay-value": 98
  },
  {
    "compound": "CCOC(=O)c1ccc(Oc2cc(C)nc(SC)n2)cc1",
    "assay-value": 99
  },
  {
    "compound": "c1ccc(-c2noc(C3CCCCC3)n2)nc1",
    "assay-value": 96.5
  },
  {
    "compound": "COC(=O)c1c(C)oc2ccc(NS(=O)(=O)c3cccs3)cc12",
    "assay-value": 94.5
  },
  {
    "compound": "CCCCN(C)CCCNC(=O)CC1Oc2ccccc2NC1=O (stereo not given)",
    "assay-value": 91.5
  },
  {
    "compound": "O=C(NC1CC1)C1CCN(c2ccc(S(=O)(=O)N3CCOCC3)cc2)CC1",
    "assay-value": 138
  },
  {
    "compound": "CC(=O)c1ccc(Oc2cc(C)nc(-n3nc(C)cc3C)n2)cc1",
    "assay-value": 96
  },
  {
    "compound": "C1CCC2=NCCCN2CC1",
    "assay-value": 87.5
  },
  {
    "compound": "CCC(Sc1nc(-c2ccccc2)c(C#N)c(=O)[nH]1)C(=O)Nc1cc(C)on1 (stereo not given)",
    "assay-value": 111
  },
  {
    "compound": "COCCNc1nc(SCC(=O)N2CCN(c3ccccc3)CC2)nc2ccccc12",
    "assay-value": 81.5
  }
]
